molecular target: recombinant human VEGFR2 enzyme (Homo sapiens (Human), UniProt P35968); assay: Inhibition of VEGFR2 kinase activity (Z'-LYTE Kinase Assay Kit); settings: ATP 50 μM; read-out: IC50 of inhibition effect on VEGFR2 kinase activity
Sequence (P35968 20-1356): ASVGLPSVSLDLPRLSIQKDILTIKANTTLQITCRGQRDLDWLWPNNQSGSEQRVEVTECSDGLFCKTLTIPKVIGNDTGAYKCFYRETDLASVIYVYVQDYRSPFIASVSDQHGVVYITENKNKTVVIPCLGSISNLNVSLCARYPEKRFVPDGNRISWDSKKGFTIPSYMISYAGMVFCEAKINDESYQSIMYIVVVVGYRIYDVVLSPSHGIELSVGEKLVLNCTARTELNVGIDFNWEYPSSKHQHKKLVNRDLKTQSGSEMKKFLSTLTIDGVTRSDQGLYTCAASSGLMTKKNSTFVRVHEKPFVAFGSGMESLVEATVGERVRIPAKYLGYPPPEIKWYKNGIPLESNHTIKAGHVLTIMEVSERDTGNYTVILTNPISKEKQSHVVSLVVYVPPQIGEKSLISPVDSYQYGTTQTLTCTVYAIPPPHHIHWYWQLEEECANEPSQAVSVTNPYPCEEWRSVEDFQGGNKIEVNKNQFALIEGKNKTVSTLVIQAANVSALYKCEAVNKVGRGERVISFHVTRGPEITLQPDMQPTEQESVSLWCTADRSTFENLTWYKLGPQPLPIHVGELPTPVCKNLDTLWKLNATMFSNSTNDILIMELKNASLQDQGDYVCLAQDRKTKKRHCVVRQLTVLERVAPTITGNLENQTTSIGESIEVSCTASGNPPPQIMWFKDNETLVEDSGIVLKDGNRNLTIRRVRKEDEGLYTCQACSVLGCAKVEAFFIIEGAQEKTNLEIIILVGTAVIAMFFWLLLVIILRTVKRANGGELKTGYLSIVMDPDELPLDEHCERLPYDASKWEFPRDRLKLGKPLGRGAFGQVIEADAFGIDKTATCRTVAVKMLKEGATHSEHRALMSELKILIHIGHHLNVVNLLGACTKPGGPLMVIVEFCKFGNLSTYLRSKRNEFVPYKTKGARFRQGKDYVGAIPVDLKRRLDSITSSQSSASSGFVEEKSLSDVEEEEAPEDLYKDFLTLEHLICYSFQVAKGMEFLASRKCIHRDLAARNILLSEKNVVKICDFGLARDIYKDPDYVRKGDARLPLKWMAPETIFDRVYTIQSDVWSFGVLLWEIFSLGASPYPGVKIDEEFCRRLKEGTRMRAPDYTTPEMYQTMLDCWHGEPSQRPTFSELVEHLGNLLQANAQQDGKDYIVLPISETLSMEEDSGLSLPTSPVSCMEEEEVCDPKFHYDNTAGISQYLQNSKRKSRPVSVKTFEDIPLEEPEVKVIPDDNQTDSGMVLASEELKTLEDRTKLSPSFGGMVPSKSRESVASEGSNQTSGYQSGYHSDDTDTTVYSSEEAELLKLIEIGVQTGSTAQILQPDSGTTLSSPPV
MEASURED PROPERTY: IC50

* NC(=O)c1ccnc2ccc(-c3c(-c4ccc(F)cn4)nc4n3[C@H]3CC[C@@H]4C3)cc12 | 6.3 µM
* Cc1cccc(-c2nc3n(c2-c2ccnc(NCCN4CCOCC4)c2)[C@H]2CC[C@@H]3C2)n1 | > 10 µM
* Cn1cc(-c2cc(-c3c(-c4ccc(F)cn4)nc4n3[C@H]3CC[C@@H]4C3)ccn2)cn1 | 2.08 µM
* Cc1cccc(-c2nc3n(c2-c2ccc4nnc(C(N)=O)n4c2)[C@H]2CC[C@@H]3C2)n1 | 1.16 µM
* Cc1cccc(-c2nc3n(c2-c2ccnc(-c4ccc(C(N)=O)cc4)c2)C2CCC3C2)n1 (stereo not drawn) | 4.05 µM
* Cc1cccc(-c2nn3c(c2-c2ccc4nccc(C(N)=O)c4c2)C2CCC3CC2)n1 | 1.01 µM

###

test system: NIH3T3 cell; assay: Inhibition of NIH3T3 cell proliferation (CellTiter-Glo); assay type: cell-based; details: Mus musculus, 72 hours, 0.5% FBS
pIC50: −log10 of the molar value.
# pIC50 listing for each entry below
MEASURED PROPERTY: pIC50

* Cc1cccc(-c2nc3n(c2-c2ccc4ncc(OCCO)nc4c2)C2CCC3C2)n1 (stereo not drawn) | 7.64
* Cc1cccc(-c2nc3n(c2-c2ccc4nccc(C(N)=O)c4c2)C2CCC3C2)n1 (stereo not drawn) | 7.10
* Cc1cccc(-c2nc3n(c2-c2ccnc(-c4cnn(C)c4)c2)C2CCC3C2)n1 (stereo not drawn) | 7.89
* Cn1cc(-c2cc(-c3c(-c4ccc(F)cn4)nc4n3[C@H]3CC[C@@H]4C3)ccn2)cn1 | 7.38
* NC(=O)c1nnc2ccc(-c3c(-c4ccc(F)cn4)nc4n3C3CCC4C3)cn12 (stereo not drawn) | 7.04
* Cc1cccc(-c2nn3c(c2-c2ccc4ncnn4c2)C2CCC3CC2)n1 | 7.48

###

target: UniProt:Q16539; experiment: Inhibition of p38α kinase activity (p38α kinase assay kit, ADP-Glo); assay type: biochemical; conditions: ATP 50 μM; read-out: IC50 of inhibition effect on p38α kinase activity
Sequence (Q16539 whole entry): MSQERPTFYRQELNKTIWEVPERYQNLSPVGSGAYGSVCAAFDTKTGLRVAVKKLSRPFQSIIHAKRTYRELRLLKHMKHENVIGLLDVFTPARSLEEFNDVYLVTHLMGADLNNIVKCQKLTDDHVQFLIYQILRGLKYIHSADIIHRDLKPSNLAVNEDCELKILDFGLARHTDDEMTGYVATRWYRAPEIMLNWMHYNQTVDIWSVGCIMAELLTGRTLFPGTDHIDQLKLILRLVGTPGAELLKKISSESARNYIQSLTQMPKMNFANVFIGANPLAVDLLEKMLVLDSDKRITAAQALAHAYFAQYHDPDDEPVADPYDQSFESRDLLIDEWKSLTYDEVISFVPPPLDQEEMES
pIC50: −log10 of the molar value.
MEASURED PROPERTY: pIC50

* Cc1cccc(-c2nc3n(c2-c2ccnc(-c4ccc(S(C)(=O)=O)cc4)c2)[C@H]2CC[C@@H]3C2)n1 [Example 3-1] | 6.16
* Cc1cccc(-c2nc3n(c2-c2ccnc(-c4ccc(S(C)(=O)=O)cc4)c2)[C@@H]2CC[C@H]3C2)n1 [Example 3-2] | 6.18
* Cc1cccc(-c2nn3c(c2-c2ccnc(-c4ccc(S(C)(=O)=O)cc4)c2)C2CCC3CC2)n1 [Example 33] | 6.25
* NC(=O)c1ccnc2ccc(-c3c(-c4ccc(F)cn4)nc4n3[C@H]3CC[C@@H]4C3)cc12 [Example 39-1] | 5.32
* CS(=O)(=O)c1ccc(-c2cc(-c3c(-c4ccc(F)cn4)nc4n3[C@H]3CC[C@@H]4C3)ccn2)cc1 [Example 42-1] | 5.11

###

system: NIH3T3 cell; experiment: Inhibition of NIH3T3 cell proliferation (CellTiter-Glo); assay type: cell-based; details: Mus musculus, 72 hours, 0.5% FBS
Reported IC50 values for a set of compounds
MEASURED PROPERTY: IC50 (nM)

• Cc1cccc(-c2nc3n(c2-c2ccc4ncnn4c2)C2CCC3C2)n1 (centres unmarked) = 37
• Cc1cccc(-c2nc3n(c2-c2cc4cnccc4s2)C2CCC3C2)n1 (centres unmarked) = 41
• Cc1cccc(-c2nc3n(c2-c2ccnc(-c4ccc(S(C)(=O)=O)cc4)c2)[C@H]2CC[C@@H]3C2)n1 = 28
• NC(=O)c1ccnc2ccc(-c3c(-c4ccc(F)cn4)nc4n3[C@H]3CC[C@@H]4C3)cc12 = 88
• NC(=O)c1ccnc2ccc(-c3c(-c4ccccn4)nc4n3[C@H]3CC[C@@H]4C3)cc12 = 51
• Cc1cccc(-c2nc3n(c2-c2ccc4nccnc4c2)C2CCC3C2)n1 (centres unmarked) = 22
• Cc1cccc(-c2nc3n(c2-c2ccc4nccc(C(N)=O)c4c2)[C@H]2CC[C@@H]3C2)n1 = 89
• Cc1cccc(-c2nc3n(c2-c2ccc4nnc(C(N)=O)n4c2)[C@H]2CC[C@@H]3C2)n1 = 44
